Target: T1, USP38, Q8NB14
T1 chain: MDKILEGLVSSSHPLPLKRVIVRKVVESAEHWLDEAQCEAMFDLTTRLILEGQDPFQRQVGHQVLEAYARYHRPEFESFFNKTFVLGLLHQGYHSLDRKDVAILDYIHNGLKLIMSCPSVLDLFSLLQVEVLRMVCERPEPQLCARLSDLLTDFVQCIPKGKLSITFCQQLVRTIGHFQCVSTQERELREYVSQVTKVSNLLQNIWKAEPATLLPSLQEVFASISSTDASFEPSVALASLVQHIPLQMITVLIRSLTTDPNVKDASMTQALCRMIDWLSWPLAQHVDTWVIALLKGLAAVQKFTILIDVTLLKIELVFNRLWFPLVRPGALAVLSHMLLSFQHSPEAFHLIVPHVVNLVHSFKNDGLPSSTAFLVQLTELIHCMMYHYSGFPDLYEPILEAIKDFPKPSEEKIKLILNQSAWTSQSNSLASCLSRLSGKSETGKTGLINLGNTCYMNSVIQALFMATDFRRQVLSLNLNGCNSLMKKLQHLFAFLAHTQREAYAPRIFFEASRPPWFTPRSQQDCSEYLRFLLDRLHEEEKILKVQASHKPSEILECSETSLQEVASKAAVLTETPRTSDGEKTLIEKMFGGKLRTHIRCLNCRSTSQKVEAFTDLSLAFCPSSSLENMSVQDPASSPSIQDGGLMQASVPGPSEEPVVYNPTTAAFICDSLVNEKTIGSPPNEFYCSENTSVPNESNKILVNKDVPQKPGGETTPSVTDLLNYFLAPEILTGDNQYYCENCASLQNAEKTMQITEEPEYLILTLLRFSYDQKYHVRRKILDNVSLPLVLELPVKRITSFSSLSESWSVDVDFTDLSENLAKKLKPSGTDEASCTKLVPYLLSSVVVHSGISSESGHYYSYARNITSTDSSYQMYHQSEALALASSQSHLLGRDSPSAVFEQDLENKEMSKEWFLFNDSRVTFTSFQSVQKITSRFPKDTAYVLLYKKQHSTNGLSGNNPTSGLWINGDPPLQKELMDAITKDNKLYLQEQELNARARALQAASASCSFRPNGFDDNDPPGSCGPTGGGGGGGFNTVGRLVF
Assay: median log2 fold change of GCK-ALFA target abundance (FLAG IP / Myc IP barcode read proportion) (log2 ratio); each designed protein is fused to an ALFA-tag nanobody in HEK293 cells to bring the named protein to FLAG-tagged glucokinase (GCK); Myc marks an untargeted standard; higher = target protein stabilised (more abundant)
Conditions: target protein: 3xFLAG-MCP-GCK-ALFA reporter; HEK293 landing pad (RPLP)
property: median log2 fold change
Please state the value as a number alone, without comment.

// known answers, use as guide
{"columns": ["binder", "median log2 fold change"],
 "data": [
  ["usp_38_diff_out_13_133_54 (protein) AAAEARREEARRLLEEAEKEIEKLLKEAEKALEEGNIDKAYEYVAKAAGLLLETRDRLFDLTRDDPELRREVLKRLKELEKKLNELIDKVEAAERERFLA", -0.102],
  ["usp_38_diff_out_14_2_122 (protein) AEAELEAAAAATKATLEDAIKRVKELLEEVKKDPSKAEEALKELRRLWDEAADAVGALARLMEAHRELRALRKRITAEVNALITEFTEAVLELLEEIAEA", -0.56],
  ["usp_38_diff_out_14_2_106 (protein) GEEEIKKATEETLKAIKEAIEKAKELKEKVKKDPSLAEEARKELFEAHDKVGDKVGALAKLIEEHKEYRETNKKAVKEVNEALKEYTEAVLELLEEIAEA", -0.23],
  ["usp_38_diff_out_17_130_227 (protein) SAEEIESLKEYLRAEKENLKSVKEEAKKNLERAKKNPVTLDRVSHGLEGVATYAEDTIKEAKELLKKYPEVAEEAKELIKVAEEARKEAKELLKEVEKLK", 0.32],
  ["usp_38_diff_out_18_28_405 (protein) MQEEIEKKIEEAEKRTNELIDKYTEAATRAFEAYAEDPSKTELVKAINEASDALGKAAQAVNEMKRNKDDPEKVEKELKKFEEAYKKAEEAIAKIEELIA", 0.0557],
  ["usp_38_diff_out_16_25_191 (protein) SVEALLRAHDKLGEAAGYILQAKEKKDSEEARKLLEKAVKALEEALKILVEELKIDPKDAEEIEKLIKEAKKLLKEGAPVEEVIKVLEKAVDAAAKALAK", 0.0845],
  ["usp_38_diff_out_18_28_360 (protein) MEERREELEKRLKELKAELDKLITEATAAITEALEAHPDDEEVWALVDKLWDALGKAAAAINEARELLREGGDLEEVEKLLKEAEKHLKKAKELLAELKA", 0.282],
  ["usp_38_diff_out_24_27_501 (protein) SAEHEKKLEKAKELLKKILELAEKAQTGDIATRIKASSEIDELFEELKKIAEEENNEELLKLLTELKTKVYAVLSGHPNAEEHLKEAKKLAEKFLEELKK", 0.157],
  ["usp_38_diff_out_2_113_464 (protein) DPEERQRLALLLRDTVVSGADYLLEKAKKGTLSSDTIITMIGGITHAARELAALDPSAKPALEEVAKKLKEIAEIYKDKDEEVKKAVEEAIKEIEALIKA", 0.0135],
  ["usp_38_diff_out_2_61_507 (protein) SAELQAQAERIEALLAQAEALIAELEAQLDTADEATLRALLAEAQAVLDEAIDLLVELYLRAHEAGDEEALAQADALWDRLGAVAARLRRAREALTDRLS", -0.299]
]}

Q: # query: median log2 fold change of entry usp_38_diff_out_18_14_324 (protein) SEELIKARISNLKSLTEEVKKVTARKLKVIDALKDDPESATALIDTQLQALEGVIKYAEEEKKEAEKLGNEELIKAAEELKKAAEEAKAELEKKRKELAA
A: 0.13

Q: # query: median log2 fold change of entry usp_38_diff_out_4_99_564 (protein) MKEEMVKKVKELKKEAEELLKKAKEAFKLSHEERKKVAEELSKELDELAKELGKIYFEARDTGDKELIKAVNKEADEFVKAYNEAAKELNLLRHEVLEEE
A: -0.19

Q: # query: median log2 fold change of entry usp_38_diff_out_18_14_259 (protein) SEELTEALISNLESLKEDVKKDTERVIRLLEKRKDDPEQVKRIKERFERDLAGVEKYAKEVLEEAKKEGNEKLAKAAEELLKTVEAARKEVEEKVAKVLA
A: -0.00381

Q: # query: median log2 fold change of entry usp_38_diff_out_14_2_119 (protein) AKAEIAKATAATLATLAAAIKKAKELTKKVKADPSLKEKARAELDKAWDAAGDAVGALNTLLLANKDLKAENKKATAATNAAITELTKTYTEALEAIEEA
A: -0.186

Q: # query: median log2 fold change of entry usp_38_diff_out_24_27_504 (protein) SEEHEKKLEELKKLLEEILKLLEESKTGDISVRIKASSEIDELFKEIEKILKELGNEEGLKLLKEFKTQAYAVLSRSPDWEEHLKKAKELAKKILELVEK
A: 0.3

Q: # query: median log2 fold change of entry usp_38_diff_out_10_51_1 (protein) SVEEAKKRIEELMKEVEEVFKTGSDGEILRKSLNALNELTEIAKEYPEVKEEVIEAMVRIVELTKPNPELYEDMTFAARFKAATVSDEVAEKVREKIAAL
A: 0.235

Q: # query: median log2 fold change of entry usp_38_diff_out_23_30_488 (protein) SPLEEAKKRLREAAEKARKEATEIKKKAEELKKKAENEYLKALANQVIDAANDFIEDLDIWLSRIDEYDEARLLRLTEYVEASLAHLKQLYEDLLKEFKK
A: 0.13

Data origin, for the record: the supplement of paper PMC12632987
